- ASSAY NAME: Volume of distribution in dog at 5 umol/kg, iv
- APPLIED CONDITIONS: in vivo
ENDPOINT LABEL: Vd (L/kg)

P: CONC(=O)N(Cc1ccsc1)C1CCN([C@H](C)CCNC(=O)c2c(C)cc(Cl)[n+]([O-])c2Cl)CC1
Q: CONC(=O)N(Cc1ccsc1)C1CCN([C@H](C)CCNC(=O)c2c(C)cc(C#N)nc2Cl)CC1
Q: When the recorded Vd values are compared, which is smaller: that of P or that of Q ? // return label of chosen record
Result: P

###

- ASSAY NAME: Clearance in dog at 5 umol/kg, iv
- APPLIED CONDITIONS: in vivo
ENDPOINT LABEL: clearance (mL/min/kg)

{"SMILES INPUT": "CONC(=O)N(Cc1ccsc1)C1CCN([C@H](C)CCNC(=O)c2c(C)cc(Cl)[n+]([O-])c2Cl)CC1", "clearance [mL/min/kg]": 40.3}
{"SMILES INPUT": "CONC(=O)N(Cc1ccsc1)C1CCN([C@H](C)CCNC(=O)c2c(C)cc(C#N)nc2Cl)CC1", "clearance [mL/min/kg]": 39.2}
